Field: % NO By Wt.. Provide a value for each of the compounds that follow.
Assay: % NO by weight of the NO complexes
Type: physicochemical
Kindly answer with a numeric value in %, unit omitted.

Input CCN(CCN)[N+]([O-])=NO [Compound 7] . Output % NO By Wt.: 40.5

Input NCCN(CCN)[N+]([O-])=NO [Compound 14] . Output % NO By Wt.: 36.8

Input CCN(CC)[N+]([O-])=NO [CH3 CH2 N(N2 O2^-)CH2 CH3.Na^+, reference compound] . Output % NO By Wt.: 38.7

Input CNCCN(C)[N+]([O-])=NO [Compound 2] . Output % NO By Wt.: 40.5

Input CCNCCN(CC)[N+]([O-])=NO [Compound 8] . Output % NO By Wt.: 34.1
